Tested on: PRP4;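 further: KINOMEscan kinase panel screen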
Details: concentration: 1 μM, replicates: in singlicate; n = 1
What %Inh was measured for each of the following?
Please format your answer as a value with the unit trailing.

The compound `O=C(Nc1n[nH]c2nc(-c3ccccc3)c(Cl)cc12)C1CC1` showed %Inh equal to 0%

Value of measured %Inh for the entry `Nc1nc(-c2ccccc2F)c(-c2ccnc3ccccc23)s1` : 33%

Lab note: `CCn1c(-c2nonc2N)nc2ccccc21` gave %Inh of 0%

compound `CCC(=O)c1c(-c2ccccc2)c2cc(Cl)ccc2c(=O)n1Cc1cc(S(C)(=O)=O)n(CCC(C)(C)O)n1` , %Inh observed: 0%

%Inh measured on CCS(=O)c1ccc(-c2coc3ccc(-c4nnc(C)o4)cc23)cc1 (centres unmarked) = 21%
